Each record here notes measured pIC50.
target or system: His-tagged recombinant human MER cytoplasmic domain (Homo sapiens (Human))
Sequence (Q12866 527-999): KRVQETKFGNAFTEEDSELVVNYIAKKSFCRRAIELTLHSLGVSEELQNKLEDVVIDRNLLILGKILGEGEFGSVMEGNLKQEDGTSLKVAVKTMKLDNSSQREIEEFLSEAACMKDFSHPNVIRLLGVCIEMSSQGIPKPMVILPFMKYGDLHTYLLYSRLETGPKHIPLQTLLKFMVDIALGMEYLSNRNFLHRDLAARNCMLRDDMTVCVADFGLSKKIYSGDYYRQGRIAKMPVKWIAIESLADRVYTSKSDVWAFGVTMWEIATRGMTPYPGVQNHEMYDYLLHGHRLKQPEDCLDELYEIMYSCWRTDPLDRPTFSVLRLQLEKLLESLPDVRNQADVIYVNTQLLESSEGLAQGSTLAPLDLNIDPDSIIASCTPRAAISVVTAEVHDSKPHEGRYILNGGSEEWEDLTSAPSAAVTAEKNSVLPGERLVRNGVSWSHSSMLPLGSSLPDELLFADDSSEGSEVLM
protocol notes: MER Enzyme Assay (LanthaScreen Eu Kinase Binding, TR-FRET)
measurement setup: averaged IC50
pIC50: −log10 of the molar value.

>>> print(df.to_string())
                                   compound  result
0  CNc1cc2c(cn1)c(-c1cnn(C)c1)nn2[C@H]1CC[C@@H](Oc2cccc(Cl)c2)CC1 [Example 361]  > 8.00
1  CNc1cc2c(cn1)c(-c1cnn(C)c1)nn2[C@H]1CC[C@@H](Oc2cccc3ncccc23)CC1 [Example 377]  > 8.00
2  CCNc1cc2c(cn1)c(-c1ccc(CN3CCN(CCOC)CC3)cc1)nn2[C@H]1CC[C@@H](Oc2ccc(=O)n(C)n2)CC1 [Example 82]  > 8.00
3  C#Cc1ncccc1OC1CCC(n2nc(-c3cnn(C)c3)c3cnc(NCC)cc32)CC1 (stereo not shown) [Example 199]  > 8.00

Problem: Respond only with pIC50 recorded for CNc1cc2c(cn1)c(-c1ccc(CN3CCN(C)CC3)cc1)nn2[C@H]1CC[C@@H](Oc2ccc(=O)n(C)n2)CC1 [Example 27]
Solution: > 8.00

Problem: Return the recorded pIC50 value; entry: CCNc1cc2c(cn1)c(-c1cnn(C)c1)nn2[C@H]1CC[C@@H](Oc2cccnc2C2CC2)CC1 [Example 186]
Solution: > 8.00

Problem: In one line, give reported pIC50 of the entry CCNc1cc2c(cn1)c(-c1cnn(C[C@H](O)[C@H](C)O)c1)nn2[C@H]1CC[C@@H](Oc2ccccc2F)CC1 [Example 430] .
Solution: > 8.00
